src = patent US10781181B2

Measured IC50 values are reported for all entries that follow.
molecular target: Human KLK1 (Homo sapiens (Human), UniProt P06870)
Sequence (P06870 25-262): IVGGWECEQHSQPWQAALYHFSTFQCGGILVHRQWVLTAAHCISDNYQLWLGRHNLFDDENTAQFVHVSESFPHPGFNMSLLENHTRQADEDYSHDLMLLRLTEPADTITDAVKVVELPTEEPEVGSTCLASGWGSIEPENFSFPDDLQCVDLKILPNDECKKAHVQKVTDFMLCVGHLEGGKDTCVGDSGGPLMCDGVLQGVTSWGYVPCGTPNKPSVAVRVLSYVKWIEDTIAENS

Solved cases below.
>  <SUBSTANCE SMILES>
Cc1nn(Cc2ccc(Cn3ccccc3=O)cc2)c(C)c1C(=O)NCCOc1cccc(Cl)c1

>  <ASSAY METRIC>
IC50

>  <VALUE>
> 40 µM

$$$$
>  <SUBSTANCE SMILES>
N#Cc1ccc(Cl)cc1OCCNC(=O)c1cn(Cc2ccc(Cn3ccccc3=O)cc2)nc1N

>  <ASSAY METRIC>
IC50

>  <VALUE>
> 40 µM

$$$$
>  <SUBSTANCE SMILES>
COCc1nn(Cc2ccc(Cn3ccccc3=O)cc2)cc1C(=O)NCCOc1cc(F)cc(Cl)c1

>  <ASSAY METRIC>
IC50

>  <VALUE>
> 10 µM

$$$$
>  <SUBSTANCE SMILES>
N#Cc1nn(Cc2ccc(Cn3ccccc3=O)cc2)cc1C(=O)NCCOc1cccc(Cl)c1

>  <ASSAY METRIC>
IC50

>  <VALUE>
> 40 µM

$$$$
>  <SUBSTANCE SMILES>
Cc1cnn(-c2ccc(Cn3cc(C(=O)NCCOc4cccc(Cl)c4)c(N)n3)cn2)c1

>  <ASSAY METRIC>
IC50

>  <VALUE>
> 40 µM

$$$$

response.value for Nc1nn(Cc2ccc(Cn3ccccc3=O)cc2)cc1C(=O)N[C@@H]1CCN(c2cccc(Cl)c2)C1 (field: IC50) = > 40 µM

Measured IC50, Nc1nn(Cc2ccc(Br)cc2)cc1C(=O)NCCOc1cccc(Cl)c1 : > 40 µM

The molecule identified as Nc1nn(Cc2ccc(Cn3c(F)cccc3=O)cc2)cc1C(=O)NCCOc1cccc(Cl)c1 registered its IC50 at > 40 µM
